- Test system: H2405 cells
- test.protocol: H2405 Cell Proliferation Assay (1)
- Assay type: cell-based
- condition.set: Homo sapiens, NCI-H2405
pIC50: −log10 of the molar value.
pIC50 by entry:

# example entries with known answers
molecule	pIC50
CNC(=O)c1cc(-c2nccc(-c3cc(NC(=O)c4ccnc(C(C)(C)C#N)c4)c(F)cc3C)n2)ccn1 [Example 166]	6.00 to 6.30
Cc1ncc(NC(=O)c2ccnc(C(C)(C)C#N)c2)cc1-c1cccc(-c2cnc3ccccn23)c1 [Example 407]	6.00 to 6.30

Exercise: May I ask what pIC50 has been recorded for Cc1cc(F)c(NC(=O)c2ccnc(C(C)(C)C#N)c2)cc1-c1cncc(-c2ccnc(NC(=O)C3CC3)c2)c1 [Example 418] ?
Key: ≥ 7.00

Exercise: Requested read-out: pIC50. Entry: CNC(=O)c1cc(-c2ccnc(-c3cc(NC(=O)c4ccnc(C(C)(C)C#N)c4)c(F)cc3C)n2)ccn1 [Example 242]
Key: 6.30 to 7.00

Exercise: I am curious: what pIC50 value has been reported for CNC(=O)c1cc(-c2cc(-c3cc(NC(=O)COCC4CC4)ccc3C)ccn2)ccn1 [Example 358] ?
Key: 5.00 to 6.00

Exercise: Returns the measured pIC50 for the input molecule. Input: Cc1ncc(NC(=O)c2ccnc(C3CC3)c2)cc1-c1ccnc(-c2ccnc(NC(=O)C3CC3)c2)c1 [Example 253]
Key: 6.30 to 7.00

Exercise: Quick one: pIC50 for CNC(=O)c1cc(-c2cncc(-c3cc(C(=O)Nc4cnn(C(C)C)c4)ccc3C)n2)ccn1 [Example 81] ?
Key: 5.00 to 6.00

----------
Listed compounds paired with reported pIC50
- Test system: WM3928 cells
- test.protocol: WM3928 Cell Proliferation Assay (1)
- Assay type: cell-based
pIC50: −log10 of the molar value.

Some compounds with known pIC50 results, for comparison:
compound	recorded.value
Cc1cc(F)c(NC(=O)c2ccnc(C(C)(C)C#N)c2)cc1-c1cc(-c2ccnc(NC(=O)C3CC3)c2)cnn1 [Example 298]	6.30 to 7.00
Cc1ccc(NC(=O)c2cc(C3CC3)on2)cc1-c1cncc(-c2cc(NC(=O)C3CC3)ncn2)c1 [Example 421]	≥ 7.00
Cc1ccc(NC(=O)c2ccnc(C(C)C)c2)cc1-c1cncc(-c2cc(NC(=O)C3CC3)ncn2)c1 [Example 434]	≥ 7.00
Cc1ncc(NC(=O)c2ccnc(C(C)(C)C#N)c2)cc1-c1ccnc(-c2ccnc(NC(=O)C(C)(C)C#N)c2)c1 [Example 219]	6.30 to 7.00

Exercise: Given the entry Cc1ccc(NC(=O)c2ccnc(C(F)(F)F)c2)cc1-c1cccc(-c2ccnc(NC(=O)C3CC3)c2)c1 [Example 58] , report its measured pIC50.
Key: 6.30 to 7.00

Exercise: Which pIC50 value belongs to Cc1ccc(NC(=O)c2ccnc(C(C)(C)C#N)c2)cc1-c1cncc(-c2ccnc(NC(=O)CC#N)c2)n1 [Example 154] ?
Key: ≥ 7.00

Exercise: Give its pIC50 value. Item: CNC(=O)c1cc(-c2cnnc(-c3cc(NC(=O)c4ccnc(C5CC5)c4)ccc3C)c2)ccn1 [Example 326]
Key: 5.00 to 6.00

Exercise: Tell me the measured pIC50 of CNC(=O)c1cc(-c2cc(-c3cc(NC(=O)c4cccc(C(F)(F)F)c4)cnc3C)ccn2)ccn1 [Example 52] , please.
Key: 6.30 to 7.00

Exercise: So what's the measured pIC50 for this one? Cc1ccc(NC(=O)c2ccnc(C(C)(C)C#N)c2)cc1-c1cncc(-c2cc(N)ncn2)c1 [Example 422]
Key: 6.30 to 7.00
